# Test system: Plasmodium falciparum
# PROTOCOL_DETAILS: NOVARTIS: Inhibition of Plasmodium falciparum 3D7 (drug-susceptible) proliferation in erythrocyte-based infection assay
# Assay type: functional, organism-based
# CONDITIONS_USED: Plasmodium falciparum, 3D7
pEC50: −log10 of the molar value.
Param threshold (6) applies to pEC50; output Met when value >= threshold, Not met when value < threshold.

COc1cc(C=C2CCC(=Cc3cc(OC)c(OC)c(OC)c3)C2=O)cc(OC)c1OC :: Not met
CC(C)(C)c1ccc(C(=O)N2CCCn3cccc3C2c2ccc(C(C)(C)C)cc2)cc1 (stereo not given) :: Not met
COC(=O)CSc1nnc2c(n1)[nH]c1c(OC)ccc(Cl)c12 :: Met
CC(c1nc2ccccc2c(=O)n1-c1ccccc1Cl)N(Cc1ccccc1)C(=O)Nc1cccc(Br)c1 (stereo not given) :: Not met
CC1=C(C(=O)OC(C)C)C(c2ccc([N+](=O)[O-])cc2)C2=C(CCCC2=O)N1 (stereo not given) :: Not met

Kindly determine if pEC50 recorded for `Cc1ccc2nc(-c3ccccc3)cc(C(=O)Nc3ccc(Cl)c(Cl)c3)c2c1` is above or exactly 6.
Not met

Would you say `CCCCOc1ccc(/C=C(/C#N)c2nc(-c3ccc(-c4ccccc4)cc3)cs2)cc1` shows pEC50 at minimum 6?
Not met

Textbook exercise: given the entry `CCOc1cccc2oc(=O)c(C(=O)Nc3cc(C(C)(C)C)on3)cc12` , state whether its pEC50 is greater than or equal to 6.
Not met

Threshold query (pEC50 >= 6) on `O=C(COc1ccc(Cl)cc1)NCCCCNc1ccnc2cc(Cl)ccc12`
Met

// inclusive: pEC50 at least 6? input: `COc1cc2nc(NC(=N)N)nc(C)c2cc1OC`
Met

# bool: pEC50 of `COc1ccc2sc(Nc3nc(-c4ccccn4)cs3)nc2c1` >= 6
Met

Test whether the compound `CC(=O)c1c(C)n(CC(=O)Nc2cccc(C)c2)c2ccccc12` records pEC50 of 6 or higher.
Met

Kindly determine if pEC50 recorded for `Cc1ccc(C2=NC(C(F)(F)F)(C(F)(F)F)N=C3C=CC(Cl)=CN32)cc1` is above or exactly 6.
Not met

Dear colleague, could you confirm whether O=C(Cc1ccccc1)NC(c1ccc(Cl)cc1)c1ccc2cccnc2c1O (stereo not given) has pEC50 at or above 6?
Met

====

# Test system: Plasmodium falciparum
# PROTOCOL_DETAILS: NOVARTIS: Inhibition of Plasmodium falciparum 3D7 (drug-susceptible) proliferation in erythrocyte-based infection assay
# Format: functional, organism-based
# CONDITIONS_USED: Plasmodium falciparum, 3D7
MEASURED_PROPERTY: pEC50
// returns pEC50 (minus log10 of molar concentration), number only

CCCCCCN(CCCCCC)CC(O)c1cc(-c2ccc(Cl)cc2)nc2c(C)cc(C)cc12 (centres undefined) :: 5.15
COc1cc(C2c3[nH]c4ccccc4c3C[C@H]3C(=O)N(CCc4ccccc4)CC(=O)N23)cc(OC)c1OC (some centres undefined) :: 6.21
CN(CCCNc1ccnc2cc(Cl)ccc12)C(=O)CCc1ccccc1 :: 6.87
C[n+]1c2n(c3ccccc31)N=C(c1ccccc1)C[Se]2 :: 6.33
COC(=O)c1[nH]c2ccc(Cl)cc2c1NC(=O)C(C)N1CCN(C2CCCCC2)CC1 (centres undefined) :: 5.11

// query pEC50 value for entry `N=C(NN=Cc1ccc([N+](=O)[O-])cc1)NN=Cc1ccc([N+](=O)[O-])cc1`
6.55

So what's the measured pEC50 for this one? CCCCCC(=O)N1c2ccccc2N=C2CC(c3ccc(OC)c(OC)c3)CC(O)=C2C1c1ccc(C(F)(F)F)cc1 (centres undefined)
6.97

So what's the measured pEC50 for this one? `N#CC(=Cc1cn(Cc2ccccc2Cl)c2ccccc12)c1nn(CCO)c(N)c1C#N`
6.56

====

# PROTOCOL_DETAILS: NOVARTIS: Cytotoxicity against human hepatocellular carcinoma cell line (Huh7)
# Assay type: toxicity, cell-based, Huh-7
# CONDITIONS_USED: Huh7 cells (hepatocellular carcinoma cell line)
MEASURED_PROPERTY: CC50

As a guide, the following entries are already answered.
Cc1ccc(/C=C/c2ccc3ccccc3[n+]2C)cc1 :: > 10 µM
CCn1c2ccccc2c2cc(C=NNC(=O)c3nnn(-c4nonc4N)c3-c3ccccc3)ccc21 :: > 10 µM
COc1cc(NC(C)CCCN(Cc2ccc(Cl)cc2)C(=O)C(C)C)c2ncccc2c1 (stereo not given) :: 13.2 µM
CN(C)CCCn1c(N)c(-c2nc3ccccc3[nH]2)c2nc(C#N)c(C#N)nc21 :: 60.2 µM
CN(C)CCCNc1ncc(C(=O)NCc2ccccc2)c(NCCc2ccccc2)n1 :: > 10 µM

Would you kindly look at the next entry?
Find the recorded CC50 belonging to `COc1ccc2c(c1)sc1nc(C)c(C)c(C)[n+]12` and report it.
> 10 µM

====

# PROTOCOL_DETAILS: NOVARTIS: Cytotoxicity against human hepatocellular carcinoma cell line (Huh7)
# Type: toxicity, cell-based, Huh-7
# CONDITIONS_USED: Huh7 cells (hepatocellular carcinoma cell line)
MEASURED_PROPERTY: CC50

Past entries and their recorded results:
CCOc1c(Cl)cc(CNC(C)C(O)c2ccccc2)cc1OC (stereo not given) :: > 10 µM
COc1ccc(C2=C(c3ccc(OC)cc3)C3(c4ccccc4)C(=O)C2(c2ccccc2)C2C(=O)N(c4ccc(C)c(Br)c4)C(=O)C23)cc1 (stereo not given) :: > 10 µM
O=C(C(Cc1ccc(O)cc1)c1ccccc1)N1CCC(n2c(Cc3ccc(F)cc3)nc3cccnc32)CC1 (stereo not given) :: > 100 µM

Reported CC50, compound `Cc1ccc(S(=O)(=O)N(C)CCCNc2ccnc3cc(Cl)ccc23)cc1` : ____
4.01 µM

Param item = Cc1ccc2c(c1)C1CN(C)CCC1N2C(=O)c1cc2ccccc2o1 (stereo not given) ; retrieve measured CC50.
> 10 µM

====

# CC50 annotations
# PROTOCOL_DETAILS: NOVARTIS: Cytotoxicity against human hepatocellular carcinoma cell line (Huh7)
# Format: toxicity, cell-based, Huh-7
# CONDITIONS_USED: Huh7 cells (hepatocellular carcinoma cell line)

COC(=O)C1C(=O)C2=C(CC1C)NC(=O)CC2c1cccc(Cl)c1Cl (stereo not drawn) :: > 100 µM

# get_value(readout='CC50', item= `CCN(CC)c1nc(-c2cccnc2)nc2ccccc12` )
72.2 µM

Form field: reported CC50 of Cc1ccc(CN2CCN(Cc3cn(C(C)C)c4ccccc34)CC2CCO)o1 (stereo not drawn)
> 100 µM

====

# PROTOCOL_DETAILS: NOVARTIS: Cytotoxicity against human hepatocellular carcinoma cell line (Huh7)
# Assay type: toxicity, cell-based, Huh-7
# CONDITIONS_USED: Huh7 cells (hepatocellular carcinoma cell line)
MEASURED_PROPERTY: CC50

O=C(Nc1ccc(Oc2cccnc2)cc1)C1CCN(Cc2ccc3nonc3c2)CC1 :: > 100 µM
CCOC(=O)c1cccc(NC(=O)CC2C(=O)N(c3ccc(F)cc3)C(=O)N2CCC(C)C)c1 (stereo unspecified) :: > 100 µM
Cc1ccc(-n2c(C(C)N(Cc3ccco3)C(=O)C3CCC3)nc3cc(Cl)ccc3c2=O)cc1 (stereo unspecified) :: > 2.76 µM
O=C(Nc1cc(Oc2ccc(F)cc2)cc([N+](=O)[O-])c1)c1nc2nc(-c3ccccc3)cc(C(F)(F)F)n2n1 :: > 100 µM
COc1ccc(/C=C/c2nc(=O)c3ccccc3o2)cc1 :: > 10 µM
CC(C)(C)C(=O)Nc1ccc(C23CC4CC(CC(c5ccccc5)(C4)C2)C3)cc1 :: > 100 µM

Which CC50 value belongs to `COc1ccc([C@@H]2Nc3ccc(C(C)=O)cc3[C@@H]3C=CC[C@@H]32)cc1[N+](=O)[O-]` ?
> 10 µM

Item `O=C1N(c2ccccc2)C[C@@H]2C[C@@H](c3ccc4nonc4c3)N3CCC[C@@]123` has what recorded CC50?
> 22.1 µM

Could you share which CC50 value was measured for `O=C(COc1ccc(Cl)cc1)Nc1cccc(-c2nc3ncccc3o2)c1` ?
> 100 µM

Please look up its CC50: `CCOC(=O)N1CCN(S(=O)(=O)c2ccc(C(=O)Nc3sc4c(c3C(N)=O)CCN(CC)C4)cc2)CC1`
20.4 µM

CC50 lookup needed for `CCOc1cc(S(=O)(=O)N2CCCC3(CCCCC3)C2)c(OCC)cc1-n1cnnn1` , thanks.
> 10 µM

Look at this compound and give its reported CC50. `CCCCN(C)C(=O)CSc1nc(NCc2ccccc2)c2ccccc2n1`
> 10 µM

Find the recorded CC50 belonging to `COc1ccc(CCNC(=O)CN(c2ccc(OC)c(OC)c2)S(=O)(=O)c2ccc(C)cc2)cc1OC` and report it.
> 100 µM

What value of measured CC50 is listed for `Cc1c(Cl)cccc1NC(=O)CCC(=O)NNC(=O)c1ccccc1` ?
> 10 µM

Name the reported CC50 value associated with the compound `O=C(NC1CC1)c1ccc(N2CCC(Cc3ccccc3)CC2)c([N+](=O)[O-])c1`
53.7 µM

Which CC50 value belongs to `N#Cc1c(N)nc(C(Cl)(Cl)Cl)nc1-c1ccccc1` ?
> 100 µM

Requested read-out: CC50. Entry: `Clc1ccc(-c2cn3c([n+]2-c2ccccc2)CCC3)cc1`
> 100 µM

Entry under review: `CC(=O)Nc1ccc2c(c1)CCCC2` . Reported CC50?
> 10 µM

// CC50 lookup, key: `CC(C)(C)NC(=S)NN=CC=NNC(=S)NC(C)(C)C`
> 100 µM

Give the measured CC50 of `CCCCCc1ccc(-c2ccc(/C(C=[N+](C)C)=C\N(C)C)cc2)cc1` .
> 10 µM

Name the reported CC50 value associated with the compound `CCn1c(SCC(=O)NCCc2ccccc2)nc2sc3c(c2c1=O)CCN(C)C3`
> 100 µM

Which value of CC50 has been reported for `Cc1ccc2[nH]c3c(NCCN(C(C)C)C(C)C)ncnc3c2c1` in the records?
16.3 µM

Query (compound): OC(Cn1cnc(-c2ccccc2)c1-c1ccccc1)Cn1c2ccc(Cl)cc2c2cc(Cl)ccc21 (stereo unspecified) ; field requested: CC50
21.2 µM
